- Test system: HEK-293T
- measurement_description: Incucyte cell viability with HEK293T; also: filed as whole numbers so only -1 and 0 and 1 occur
- Assay type: toxicity, cell-based
- recorded_conditions: human, 18 h, 10 µM, compound concentration 10 uM, replicate number 1, timepoint 18 hours
Below: a set of entries, each annotated with reported Growth Rate.
The answer should be written as a number, with no unit following it.

compound=Cl.O=C(Cc1ccc(Cl)c(Cl)c1)N1CCCC[C@H]1CN1CCCC1 value_type="Growth Rate" result_value=0
compound=COc1cc(Nc2ccnc3ccc(Br)cc23)cc(OC)c1OC value_type="Growth Rate" result_value=0

Which value of Growth Rate has been reported for CC(C)NCC(O)COc1cccc2ccccc12.Cl (stereo not drawn) [PROPRANOLOL HYDROCHLORIDE] in the records?
0

Which value of Growth Rate has been reported for N#CCNC(=O)c1ccc(-c2ccnc(Nc3ccc(N4CCOCC4)cc3)n2)cc1 [MOMELOTINIB] in the records?
0

Which value of Growth Rate has been reported for CN(c1cc(C(F)(F)F)nc(OCCC(=O)O)n1)c1cccc2c1CCC2 in the records?
1

Which value of Growth Rate has been reported for CCc1cc(Nc2nccc(-c3c(-c4ccc(OC)c(C(=O)Nc5c(F)cccc5F)c4)nc4ccccn34)n2)c(OC)cc1N1CCC(N2CCN(S(C)(=O)=O)CC2)CC1 in the records?
0

Which value of Growth Rate has been reported for COc1ccc(CCc2nc3cc(-c4c(C)noc4C)ccc3n2C[C@H](C)N2CCOCC2)cc1Cl in the records?
0

----------
Below: a set of entries, each annotated with reported Population Hoechst High Intensity Objects (%).
- Tested on: U2OS
- measurement_description: Multiplex assay against U2OS
- Format: toxicity, cell-based
- recorded_conditions: human, 48 h, 10 µM, compound concentration 10 uM, replicate 1
Supply the numeric figure in %, leaving out any unit text.

Solved entries (count: 5):
compound=Cc1ccc(S(=O)(=O)NC2c3ccccc3Oc3ccccc32)cc1 result_value=3
compound="CCCCCNC(=N)N/N=C/c1c[nH]c2ccc(OC)cc12.O=C(O)/C=C\\C(=O)O [TEGASEROD MALEATE]" result_value=14
compound=CCCCN(CC)c1nc(C)nc2c1c(C)cn2-c1c(C)cc(C)cc1C.Cl result_value=6
compound="CN1C(=O)[C@@H](NC(=O)c2cc3ccccc3[nH]2)N=C(c2ccccc2)c2ccccc21 [DEVAZEPIDE]" result_value=5
compound=CN(c1cc(C(F)(F)F)nc(OCCC(=O)O)n1)c1cccc2c1CCC2 result_value=2

Which value of Population Hoechst High Intensity Objects (%) has been reported for Oc1cccc(-c2nc(N3CCOCC3)c3oc4ncccc4c3n2)c1 in the records?
15

Which value of Population Hoechst High Intensity Objects (%) has been reported for N#Cc1cccc(C(=O)Nc2cc(-c3ccccc3)nn2-c2ccccc2)c1 in the records?
10

Which value of Population Hoechst High Intensity Objects (%) has been reported for Cc1c(P(=S)(c2ccccc2)c2ccccc2)n2ccccc2[n+]1C/C=C/c1ccccc1.[Br-] in the records?
19

----------
- Tested on: HEK-293T
- measurement_description: Multiplex assay against HEK293T
- Assay type: toxicity, cell-based
- recorded_conditions: human, 12 h, 1 µM, compound concentration 1 uM, replicate 2
value_type: Population Healthy Nuclei (%)
Supply the numeric figure in %, leaving out any unit text.

Solved entries (count: 5):
molecule=CCCCN(CC)c1nc(C)nc2c1c(C)cn2-c1c(C)cc(C)cc1C.Cl result_value=43
molecule=N#CCNC(=O)c1ccc(-c2ccnc(Nc3ccc(N4CCOCC4)cc3)n2)cc1 result_value=52
molecule=Cc1c(Nc2ccc(S(=O)(=O)N3CCN(C)CC3)cc2F)nc2ccc(-c3cnn(C4CC4)c3)cn2c1=O result_value=87
molecule="CC(Cc1ccc(O)c(O)c1)C(C)Cc1ccc(O)c(O)c1 (configuration not stated) [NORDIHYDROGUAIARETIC ACID]" result_value=36
molecule="CN1C(=O)[C@@H](NC(=O)c2cc3ccccc3[nH]2)N=C(c2ccccc2)c2ccccc21 [DEVAZEPIDE]" result_value=36

Find Population Healthy Nuclei (%) (HEK-293T) for the entry CCOC(=O)CCNc1cc(N2CCc3ccccc3CC2)nc(-c2ccccn2)n1
86

Find Population Healthy Nuclei (%) (HEK-293T) for the entry CC(C)[C@H](CO)Nc1nc(Nc2cccc(Cl)c2)c2ncn(C(C)C)c2n1
43

Find Population Healthy Nuclei (%) (HEK-293T) for the entry CCCCCNC(=N)N/N=C/c1c[nH]c2ccc(OC)cc12.O=C(O)/C=C\C(=O)O [TEGASEROD MALEATE]
35

Find Population Healthy Nuclei (%) (HEK-293T) for the entry Cl.Cn1c2c(c3ccc(Cl)c(Cl)c31)C(C#N)C1(CCNCC1)NC2=O (configuration not stated)
87

Find Population Healthy Nuclei (%) (HEK-293T) for the entry CC[C@@H]1C(=O)N(C)c2cnc(Nc3ccc(C(=O)N[C@H]4CC[C@H](N5CCN(CC6CC6)CC5)CC4)cc3OC)nc2N1C(C)C
76

Find Population Healthy Nuclei (%) (HEK-293T) for the entry CN(c1cc(C(F)(F)F)nc(OCCC(=O)O)n1)c1cccc2c1CCC2
49

Find Population Healthy Nuclei (%) (HEK-293T) for the entry CC(C)c1cc(Nc2nc(N3CCC[C@H](N)C3)ncc2C(N)=O)cc(C(C)C)n1
26

Find Population Healthy Nuclei (%) (HEK-293T) for the entry N#Cc1cccc(C(=O)Nc2cc(-c3ccccc3)nn2-c2ccccc2)c1
42

Find Population Healthy Nuclei (%) (HEK-293T) for the entry CC[C@H](Nc1ncnc2[nH]cnc12)c1nc2cccc(F)c2c(=O)n1-c1ccccc1
85

Find Population Healthy Nuclei (%) (HEK-293T) for the entry C=CC(=O)Nc1cc(-n2c(=O)ccc3cnc4ccc(-c5ccc(NS(C)(=O)=O)cc5)cc4c32)ccc1C
35

Find Population Healthy Nuclei (%) (HEK-293T) for the entry NC(=O)c1ccc2nc(-c3ccc(C4(N)CCC4)cc3)c(-c3ccccc3)n2n1
87

Each recorded value in this set is attributed to ChEMBL document CHEMBL4689842.
